B1: TRIM43 (parent)
chain: RAQMIRNEYRKLHPVLHKEEKQHL

variants of: B1; experiment: protein stability index of a GFP-peptide fusion (GPS, HEK-293T) (PSI 1-6); higher = more stable; conditions: c terminus: a fixed tail appended;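 further: lentivirally expressed fusions sorted by FACS into six bins by GFP to DsRed ratio, PSI derived from sequencing read proportions per bin multiplied by bin number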
Record Met whenever protein stability index is at 3 or higher; record Not met when lower.

As a guide, the following entries are already answered.
- seq_string: "RAQMIRNEYRKLHPVLFKEEKQHL [H17F]"
  classification: "Not met"
- seq_string: "RAQMIRNEYRKLHPVLHEEEKQHL [K18E]"
  classification: "Met"
- seq_string: "RAQMIPNEYRKLHPVLHKEEKQHL [R6P]"
  classification: "Met"
- seq_string: "RAQMIRSEYRKLHPVLHKEEKQHL [N7S]"
  classification: "Not met"
- seq_string: "RAQMIRAEYRKLHPVLHKEEKQHL [N7A]"
  classification: "Not met"

Data request: Is the recorded value of protein stability index equal to or greater than 3 for this variant? RAQMIHNEYRKLHPVLHKEEKQHL [R6H]
Data returned: Met

Data request: Form field: protein stability index at least 3? Entry: RAQMIRNEYRKLHPVLHKEYKQHL [E20Y]
Data returned: Not met

Data request: hey, is protein stability index for this one >= 3? RAQMIRNAYRKLHPVLHKEEKQHL [E8A]
Data returned: Not met

Data request: Item RAQMIRNEYRKLHPVLHKEEKQCL [H23C] with protein stability index of 3 or above?
Data returned: Met

Data request: Check this variant for protein stability index at or above 3: RAQMIRNEYRKLHPVGHKEEKQHL [L16G]
Data returned: Met

Data request: // inclusive: protein stability index at least 3? input: RAQRIRNEYRKLHPVLHKEEKQHL [M4R]
Data returned: Met

Data request: Would you say TAQMIRNEYRKLHPVLHKEEKQHL [R1T] shows protein stability index at minimum 3?
Data returned: Not met

Data request: Given the entry RAHMIRNEYRKLHPVLHKEEKQHL [Q3H] , answer whether its protein stability index meets or surpasses 3.
Data returned: Met

Where these numbers come from: the supplement of paper PMC10567573
